Test summary: Cytotoxicity against human MT4 cells assessed as cell growth inhibition incubated for 5 days by MTT assay
Type: toxicity, cell-based
Details: time 5 day
Listing of recorded CC50 at 120 h by entry.

[
  {
    "Compound": "Cc1c(C(C#N)c2ccc(F)cc2)nc(SC(C)C)[nH]c1=O (centres undefined)",
    "CC50 at 120 h, µM": 113
  },
  {
    "Compound": "Cc1c(C(C#N)c2c(F)cccc2Cl)nc(SC(C)C)[nH]c1=O (centres undefined)",
    "CC50 at 120 h, µM": 74.7
  },
  {
    "Compound": "Cc1c(C(C#N)c2cccc(F)c2)nc(SC(C)C)[nH]c1=O (centres undefined)",
    "CC50 at 120 h, µM": 202
  },
  {
    "Compound": "Cc1c(C(C#N)c2ccc(Cl)nc2)nc(SC(C)C)[nH]c1=O (centres undefined)",
    "CC50 at 120 h, µM": 216
  }
]

---

Listing of recorded CC50 at 120 h by entry.
Test summary: Cytotoxicity against human MT4 cells assessed as cell growth inhibition incubated for 5 days by MTT assay
Format: toxicity, cell-based
Details: time 5 day

[
  {
    "Compound": "Cc1c(C(C#N)c2cc(F)cc(Cl)c2)nc(SC(C)C)[nH]c1=O (stereo not given)",
    "CC50 at 120 h, µM": 139
  },
  {
    "Compound": "Cc1c(C(C#N)c2c(F)cccc2F)nc(SC(C)C)[nH]c1=O (stereo not given)",
    "CC50 at 120 h, µM": 137
  },
  {
    "Compound": "Cc1c(C(C#N)c2cccc(Cl)c2)nc(SC(C)C)[nH]c1=O (stereo not given)",
    "CC50 at 120 h, µM": 172
  },
  {
    "Compound": "Cc1c(C(C#N)c2ccc(F)c(C#N)c2)nc(SC(C)C)[nH]c1=O (stereo not given)",
    "CC50 at 120 h, µM": 164
  },
  {
    "Compound": "Cc1c(C(C#N)c2ccc(Cl)cc2)nc(SC(C)C)[nH]c1=O (stereo not given)",
    "CC50 at 120 h, µM": 70.2
  },
  {
    "Compound": "Cc1cccc(C(C#N)c2nc(SC(C)C)[nH]c(=O)c2C)c1 (stereo not given)",
    "CC50 at 120 h, µM": 167
  },
  {
    "Compound": "Cc1cc(C#N)cc(C)c1Oc1nc(Nc2ccc(C#N)cc2)nc(N)c1Br [ETRAVIRINE]",
    "CC50 at 120 h, µM": 4.6
  },
  {
    "Compound": "Cc1c(C(C#N)c2ccccc2)nc(SC(C)C)[nH]c1=O (stereo not given)",
    "CC50 at 120 h, µM": 204
  },
  {
    "Compound": "Cc1c(C(C#N)c2cc(F)cc(F)c2)nc(SC(C)C)[nH]c1=O (stereo not given)",
    "CC50 at 120 h, µM": 202
  },
  {
    "Compound": "Cc1c(C(C#N)c2cc(Cl)cc(C(F)(F)F)c2)nc(SC(C)C)[nH]c1=O (stereo not given)",
    "CC50 at 120 h, µM": 23.1
  },
  {
    "Compound": "Cc1c(C(C#N)c2c(Cl)cccc2Cl)nc(SC(C)C)[nH]c1=O (stereo not given)",
    "CC50 at 120 h, µM": 62.2
  },
  {
    "Compound": "Cc1c(C(C#N)c2ccc(-c3ccccc3)cc2)nc(SC(C)C)[nH]c1=O (stereo not given)",
    "CC50 at 120 h, µM": 30.5
  },
  {
    "Compound": "Cc1c(C(C#N)c2cc(Cl)cc(Cl)c2)nc(SC(C)C)[nH]c1=O (stereo not given)",
    "CC50 at 120 h, µM": 28.9
  },
  {
    "Compound": "Cc1c(C(C#N)c2cccc3c2OCO3)nc(SC(C)C)[nH]c1=O (stereo not given)",
    "CC50 at 120 h, µM": 96.5
  },
  {
    "Compound": "Cc1c(C(C#N)c2ccccc2Cl)nc(SC(C)C)[nH]c1=O (stereo not given)",
    "CC50 at 120 h, µM": 89.2
  }
]

---

Test summary: Fold resistance, ratio of EC50 for antiviral activity against drug-resistant HIV-1 E138K mutant infected in human MT4 cells to EC50 for antiviral activity against […] HIV-1 infected in human MT4 cells
Type: functional
Listing of recorded Ratio EC50 by entry.
Test readout: Ratio EC50

[
  {
    "Compound": "Cc1c(C(C#N)c2ccc(C(C)C)cc2)nc(SC(C)C)[nH]c1=O (stereo not drawn)",
    "Test readout": "Ratio EC50",
    "Result number": 3
  },
  {
    "Compound": "Cc1c(C(C#N)c2c(F)cccc2F)nc(SC(C)C)[nH]c1=O (stereo not drawn)",
    "Test readout": "Ratio EC50",
    "Result number": 2
  },
  {
    "Compound": "Cc1c(C(C#N)c2cccc(Br)c2)nc(SC(C)C)[nH]c1=O (stereo not drawn)",
    "Test readout": "Ratio EC50",
    "Result number": 3
  }
]
